- target_or_system: SARS-CoV-2 spike S1 protein (SARS-CoV-2, UniProt P0DTC2 16-685)
Could you please report measured Kd for the items listed next?
Numbers only, in nM.

Example binders with recorded Kd:
binder	endpoint_name	measured_number
AB-009619 (antibody, V domains shown) VH: QVQLVQSGAEVKKPGASVKVSCKVSGYTLIELSMHWVRQAPGKGLEWMGGFDPEDGETIYAQKFQGRVTMTEDTSTDTAYMELSSLRSEDTAVYYCATGPAAATSGWFDPWGQGTLVTVSS VL: QSALTQPASVSGSPGQSITISCTGTSSDVGGYNYVSWYQQHPGKAPKLMIYDVSNRPSGVSNRFSGSKSGNTASLTISGLQAEDEADYYCSSYTSSSTRVFGGGTKLTVL	Kd	25.8
AB-009251 (antibody, V domains shown) V domain 1: QVQLVQSGAEVKKPGASVKVSCKTSGYTFTTFYIHWVRQVPGQGLEWMGIINPDGGSTNYAQEFQARVTMTTDTSTSTAYMELSSLRFEDTAVFYCATSLGAPPGLSPRTGPQRRGPPGFDFWGQGTLITVSA V domain 2: QSVLTQPPSVSGAPGQRVTISCTGSSSNIGAGYDVHWYQQLPGTAPKLLIFDNNNRPSGVPYRFSGSRSGTSASLAITGLQPEDEADYYCQSYDSSLSGRVFGGGTRVTVL	Kd	48.1

Okay, now this binder:
Fill in the blank: the reported Kd of AB-009722 (antibody, V domains shown) VH: QVQLVQSGAEVRKPGSSVKVSCNVSGGIFNSYKITWVRQAPGQGLEWMGGIIAIFGTADYAQRFQGRLSITADESTSTAYMELSSLRSDDTAVYYCTRERFSNYFDPWGQGTLVTVSS VL: EVVLTQSPATLSLSPGERATLSCRASQSVSSFLGWYQQKPGQAPRLLIYDASNRASGIPARFSGSGSGTDFTLTISKLEPEDFAVYYCQQRSRGPSGITFGQGTRLEIK is ____.
41.2

meta.source: patent US20240327505A1
